meta.source: ChEMBL document CHEMBL3046732

Tested on: Salmonella typhimurium
Test: Antimicrobial activity against Salmonella enterica subsp. enterica serovar Typhimurium assessed as growth inhibition by microdilution method
reported_metric: MIC (µg/mL)

smiles_record=Cc1cccc2cc3c(nc12)SC(NCCN1CCOCC1)=NN=C3 comparison_sign== obs_value=1000
smiles_record=Cc1ccc2nc3c(cc2c1)C=NN=C(Nc1cccc(F)c1)S3 comparison_sign=> obs_value=1000
smiles_record=Cc1ccc2nc3c(cc2c1)C=NN=C(Nc1ccc(F)cc1)S3 comparison_sign== obs_value=250
smiles_record=Cc1c(Cl)ccc2cc3c(nc12)SC(Nc1ccc(Cl)cc1)=NN=C3 comparison_sign== obs_value=1000
smiles_record=CCc1ccc(NC2=NN=Cc3cc4cc(C)ccc4nc3S2)cc1 comparison_sign=> obs_value=1000
smiles_record=COc1ccc2nc3c(cc2c1)C=NN=C(Nc1ccc(C)cc1)S3 comparison_sign== obs_value=500
smiles_record=Cc1ccc(NC2=NN=Cc3cc4cccc(C)c4nc3S2)c(C)c1 comparison_sign== obs_value=1000
smiles_record=Cc1ccc(NC2=NN=Cc3cc4ccc(Cl)c(C)c4nc3S2)cc1 comparison_sign== obs_value=500
smiles_record=Cc1c(Cl)ccc2cc3c(nc12)SC(Nc1ccccc1Cl)=NN=C3 comparison_sign== obs_value=500
smiles_record=Cc1cccc2cc3c(nc12)SC(Nc1ccc(F)cc1)=NN=C3 comparison_sign== obs_value=500
smiles_record=Cc1c(Cl)ccc2cc3c(nc12)SC(Nc1ccc(F)cc1)=NN=C3 comparison_sign== obs_value=1000

====

System: Salmonella typhimurium
Test: Antimicrobial activity against Salmonella enterica subsp. enterica serovar Typhimurium assessed as growth inhibition by microdilution method
reported_metric: MIC (µg/mL)

smiles_record=Cc1ccccc1NC1=NN=Cc2cc3cccc(C)c3nc2S1 reported_metric=MIC comparison_sign== obs_value=1000
smiles_record=Cc1cccc2cc3c(nc12)SC(NCc1ccccc1)=NN=C3 reported_metric=MIC comparison_sign=> obs_value=1000
smiles_record=Cc1ccc(NC2=NN=Cc3cc4cccc(C)c4nc3S2)cc1 reported_metric=MIC comparison_sign== obs_value=1000
smiles_record=Cc1ccccc1NC1=NN=Cc2cc3ccc(Cl)c(C)c3nc2S1 reported_metric=MIC comparison_sign== obs_value=500
smiles_record=Cc1ccc2nc3c(cc2c1)C=NN=C(Nc1ccccc1C)S3 reported_metric=MIC comparison_sign== obs_value=1000
smiles_record=COc1ccc2nc3c(cc2c1)C=NN=C(Nc1ccccc1F)S3 reported_metric=MIC comparison_sign=> obs_value=1000
smiles_record=COc1ccc2nc3c(cc2c1)C=NN=C(Nc1ccc(Cl)cc1)S3 reported_metric=MIC comparison_sign== obs_value=1000
smiles_record=Cc1cccc2cc3c(nc12)SC(Nc1ccccc1)=NN=C3 reported_metric=MIC comparison_sign== obs_value=1000
smiles_record=Cc1c(Cl)ccc2cc3c(nc12)SC(Nc1cccc(F)c1)=NN=C3 reported_metric=MIC comparison_sign== obs_value=1000
smiles_record=Cc1cccc2cc3c(nc12)SC(Nc1ccc(Cl)cc1)=NN=C3 reported_metric=MIC comparison_sign== obs_value=1000
smiles_record=COc1ccc2nc3c(cc2c1)C=NN=C(NCc1ccccc1)S3 reported_metric=MIC comparison_sign== obs_value=500
smiles_record=Cc1cccc(C)c1NC1=NN=Cc2cc3ccc(Cl)c(C)c3nc2S1 reported_metric=MIC comparison_sign== obs_value=1000
smiles_record=COc1ccc2nc3c(cc2c1)C=NN=C(Nc1ccccc1)S3 reported_metric=MIC comparison_sign== obs_value=60
smiles_record=COc1ccc2nc3c(cc2c1)C=NN=C(Nc1ccc(C)cc1C)S3 reported_metric=MIC comparison_sign== obs_value=500
smiles_record=Cc1ccc(NC2=NN=Cc3cc4cc(C)ccc4nc3S2)cc1 reported_metric=MIC comparison_sign== obs_value=60
smiles_record=COc1ccc2nc3c(cc2c1)C=NN=C(Nc1cccc(F)c1)S3 reported_metric=MIC comparison_sign== obs_value=1000
smiles_record=Cc1c(Cl)ccc2cc3c(nc12)SC(Nc1ccccc1)=NN=C3 reported_metric=MIC comparison_sign=> obs_value=1000
smiles_record=Cc1c(Cl)ccc2cc3c(nc12)SC(Nc1cccc(Cl)c1)=NN=C3 reported_metric=MIC comparison_sign== obs_value=1000
smiles_record=COc1ccc2nc3c(cc2c1)C=NN=C(Nc1ccccc1C)S3 reported_metric=MIC comparison_sign== obs_value=125
smiles_record=Cc1cccc2cc3c(nc12)SC(Nc1cccc(Cl)c1)=NN=C3 reported_metric=MIC comparison_sign== obs_value=1000
smiles_record=Cc1ccc2nc3c(cc2c1)C=NN=C(Nc1c(C)cccc1C)S3 reported_metric=MIC comparison_sign== obs_value=1000
smiles_record=COc1ccc2nc3c(cc2c1)C=NN=C(Nc1ccccc1Cl)S3 reported_metric=MIC comparison_sign== obs_value=60
smiles_record=COc1ccc2nc3c(cc2c1)C=NN=C(NCCN1CCOCC1)S3 reported_metric=MIC comparison_sign== obs_value=500
